Tested on: wheat germ agglutinin (Triticum aestivum), Alexa647-labelled
Experiment: wheat germ agglutinin binders on compound microarrays, profiling panel, artefact control for SMM control-protein annotation, biochemical, small-molecule microarray, 635/667 nm fluorescence (AID 1140);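 note: score merges 667 nm feature emission with signal to noise over triplicate slides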
Conditions: WGA-A647 binding, 635 nm fluorescence, higher = more signal
Measured composite z-score values are reported for all entries that follow.
Form field (numeric): enter value without unit.

Sample answers from the record:
>>> df
                                   molecule                               system_name  numeric_result
0  CC(C)=CCCC(C)=CCON=C1C[C@@H](O)[C@@H](O)[C@@H]2[C@@H]3C(=O)N([C@@H](C)c4ccccc4)C(=O)[C@@H]3CC[C@H]12  wheat germ agglutinin (Triticum aestivum), Alexa647-labelled           0.324
1  C[C@@H]1CC[C@@H](C(=O)O)N[C@H]1c1ccc(-c2ccco2)cc1  wheat germ agglutinin (Triticum aestivum), Alexa647-labelled           0.589
2  CCOC(=O)NN=C1C[C@@H](O)[C@@H](O)[C@@H]2[C@@H]3C(=O)N(Cc4ccc5c(c4)OCO5)C(=O)[C@@H]3CC[C@@H]12  wheat germ agglutinin (Triticum aestivum), Alexa647-labelled           0.626

Now look at this entry.
Requested field: composite z-score. Item: Cc1cc2c(nc1C)CCCN2CC(C)ON=C[C@@H](C)[C@H](OCc1ccccc1)C(C)C (some centres undefined)
-0.911
